# measurement-protocol: Toxicity liver stage against HepG2, at 10uM
# Type: cell-based
# Set-up: test concentration 10 uM, cell line HepG2-A16-CD81EGFP
# settings: human, HepG2-A16-CD81EGFP cells; read-out: INHIBITION
Here the recorded cytotoxicity at 10 µM is given for each entry.
Answer with the figure and its unit, nothing else.

Check out these entries, answers already filled in.
[
  {
    "molecule": "COc1nn(C)cc1C(=O)N1CCC(c2nnc(C(C)C)o2)CC1",
    "cytotoxicity at 10 µM": "13.5%"
  },
  {
    "molecule": "Cc1cc(C)c2c(c1)C(NC(=O)CSCC(N)=O)CCO2 (stereo not drawn)",
    "cytotoxicity at 10 µM": "-6.94%"
  },
  {
    "molecule": "CN(Cc1cccnc1)CC1CCOc2ccccc2C1 (stereo not drawn)",
    "cytotoxicity at 10 µM": "-4.92%"
  },
  {
    "molecule": "O=C(c1ccco1)N1CC[C@@H]2O[C@@H](COCCN3CCCC3)CC[C@@H]21",
    "cytotoxicity at 10 µM": "-76.8%"
  },
  {
    "molecule": "c1cn(-c2ccc(CN3CCOC(Cn4cncn4)C3)cc2)cn1 (stereo not drawn)",
    "cytotoxicity at 10 µM": "1.25%"
  }
]

*Q* What value of cytotoxicity at 10 µM has been reported for the following molecule? c1cc(C2CC2)n2cnc(C3CN(Cc4nccs4)CCO3)c2c1 (stereo not drawn)
*A* 1.49%

*Q* So what's the measured cytotoxicity at 10 µM for this one? Cc1nn(C)c(C)c1C1CCCN1CC(=O)Nc1cccnc1 (stereo not drawn)
*A* -31.7%

*Q* Reported cytotoxicity at 10 µM, molecule CCn1ccnc1CNCC1CCN(CC(O)c2ccccc2)CC1 (stereo not drawn) : ____
*A* -12.8%

*Q* Form field: reported cytotoxicity at 10 µM of `CCc1noc(CN(CC)C(=O)c2ccc3ncsc3c2)n1`
*A* 12.2%

*Q* Give the measured cytotoxicity at 10 µM of `O=C(NCc1ccccc1)N1CCC(Oc2ncccc2Br)CC1` .
*A* 18.3%

*Q* // returns reported cytotoxicity at 10 µM for input Cc1ccc(CNC(=O)C2c3c(ncn3C(C)C)CCN2S(C)(=O)=O)o1 (stereo not drawn)
*A* -13.7%

*Q* Give its cytotoxicity at 10 µM value. Item: CC(=O)NCCCSC1CCCN(c2ccccc2Cl)C1=O (stereo not drawn)
*A* -0.5%

*Q* Entry `Cc1cccc(S(=O)(=O)N2C[C@@H]3C[C@H](C(=O)NCC(C)C)[C@H](C2)O3)c1` : reported cytotoxicity at 10 µM = ?
*A* 6.53%

* * *

# measurement-protocol: Toxicity liver stage against HepG2, at 10uM
# Assay type: cell-based
# Parameters: test concentration 10 uM, cell line HepG2-A16-CD81EGFP
# settings: human, HepG2-A16-CD81EGFP cells; read-out: INHIBITION
quantity-name: cytotoxicity at 10 µM (%)
Your answer should be a plain number; it is taken to be in %.

Would you please look over these solved cases?
[
  {
    "compound": "CCOc1cccc(NS(=O)(=O)c2cc(C)c(C(=O)O)s2)c1",
    "cytotoxicity at 10 µM [%]": -5.28
  },
  {
    "compound": "O=c1c2cccnc2ccn1Cc1nccn1C1CC1",
    "cytotoxicity at 10 µM [%]": -4.87
  },
  {
    "compound": "O=C(c1ccc2ccccc2c1)C1CCCN(C(=O)Cn2cncn2)C1 (stereo not given)",
    "cytotoxicity at 10 µM [%]": 2.6
  },
  {
    "compound": "Cc1cccc(C(=O)N2CCCCC2c2nc3cc(F)ccc3[nH]2)n1 (stereo not given)",
    "cytotoxicity at 10 µM [%]": -1.99
  },
  {
    "compound": "Nc1cc(N2CCCC(COc3ccc(F)cc3)C2)ncn1 (stereo not given)",
    "cytotoxicity at 10 µM [%]": -0.106
  },
  {
    "compound": "Cc1ccccc1-n1cc(CNc2ncnc3c2CCNCC3)cn1",
    "cytotoxicity at 10 µM [%]": 1.25
  },
  {
    "compound": "Cc1nn(C)c(N(C)C)c1CNC(C)c1cccc(OC(C)C)c1 (stereo not given)",
    "cytotoxicity at 10 µM [%]": -7.76
  },
  {
    "compound": "O=C(c1ccccc1C(F)(F)F)N1C[C@@H](CN2CCOCC2)[C@@H](CO)C1",
    "cytotoxicity at 10 µM [%]": -3.7
  },
  {
    "compound": "O=C(NCc1cccnc1)c1ccc2nccn2c1",
    "cytotoxicity at 10 µM [%]": 8.08
  },
  {
    "compound": "COCCS(=O)(=O)Nc1cc(Cl)ccn1",
    "cytotoxicity at 10 µM [%]": 2.62
  }
]

*Q* cytotoxicity at 10 µM lookup needed for Cc1cc(C)nc(C2CCCN2S(=O)(=O)N2CCOCC2)n1 (stereo not given) , thanks.
*A* 0.55

*Q* Please give the measured cytotoxicity at 10 µM for this compound: `c1cc(CN2CCO[C@H]3[C@H](OCCN4CCCC4)CC[C@@H]32)ccn1`
*A* -1.95

*Q* Returns the measured cytotoxicity at 10 µM for the input compound. Input: `CCN(CC)C(=O)[C@@H]1C[C@@H](n2cc(-c3ccccn3)nn2)CN1`
*A* 9.63

*Q* For the compound shown here, `O=C(c1ccsc1)N1CCO[C@@H]2CN(Cc3ccccn3)CC[C@@H]2C1` , give the reported cytotoxicity at 10 µM.
*A* -123

* * *

# measurement-protocol: Toxicity liver stage against HepG2, at 10uM
# Type: cell-based
# Design: test concentration 10 uM, cell line HepG2-A16-CD81EGFP
# settings: human, HepG2-A16-CD81EGFP cells; read-out: INHIBITION
List of cytotoxicity at 10 µM values.
Give the number; % is assumed, so skip it.

Answered cases to consult:
[
  {
    "molecule": "CC(C)CN1CCC(C(=O)Nc2cc(C(F)(F)F)c[nH]c2=O)CC1",
    "quantity-unit": "%",
    "observed-value": -11.3
  },
  {
    "molecule": "Cc1noc(C)c1CN1C[C@H]2CC[C@@H](C1)N(Cc1cc(F)cc(F)c1)C2",
    "quantity-unit": "%",
    "observed-value": -11.9
  }
]

*Q* // returns reported cytotoxicity at 10 µM for input CCC(CNS(N)(=O)=O)Oc1ccccc1F (stereo unspecified)
*A* 3.01

*Q* Consider the molecule CCC(C)NC(=O)CCc1ccc(OCC(F)(F)F)c(OC)c1 (stereo unspecified) and give its measured cytotoxicity at 10 µM.
*A* -3.27

*Q* Param item = O=C(c1ccc(NC2CC2)nc1)N1CCCC(n2ccnc2)C1 (stereo unspecified) ; retrieve measured cytotoxicity at 10 µM.
*A* -3.81

*Q* Which cytotoxicity at 10 µM is listed for `CN(C)Cc1noc2c1CN(Cc1ccsc1)CC2` ?
*A* -2.88

*Q* Given the entry `CCn1cnnc1CNC(=O)N1CCN(c2ccccc2O)CC1` , report its measured cytotoxicity at 10 µM.
*A* -1.47

*Q* Return reported cytotoxicity at 10 µM; argument: O=C(c1cc(Cl)c2c(c1)OCCCO2)N(CC1CCOC1)C1CC1 (stereo unspecified)
*A* -4.09

*Q* I would be grateful if you could share the reported cytotoxicity at 10 µM for O=C(c1ccc2[nH]cnc2c1)N1CCCC1Cn1cccn1 (stereo unspecified) .
*A* -10

*Q* I would be grateful if you could share the reported cytotoxicity at 10 µM for `COc1ccc(CN(C)CC(=O)Nc2ccc3[nH]c(=O)[nH]c3c2)cc1F` .
*A* 5.97

*Q* Given the entry `CCOc1ccccc1Nc1nc2c(C)nn(C)c2c(=O)n1C` , report its measured cytotoxicity at 10 µM.
*A* -7.53

*Q* May I ask what cytotoxicity at 10 µM has been recorded for `COc1cc(C#N)ccc1OCC(=O)NS(=O)(=O)c1cccnc1` ?
*A* 5.41

*Q* Any idea what its cytotoxicity at 10 µM is? The molecule is `Cc1ccc([C@@H]2CN(C(=O)CCc3ccco3)C[C@H]2N(C)C)cc1`
*A* 3.13

*Q* Look at this molecule and give its reported cytotoxicity at 10 µM. `O=C(c1ccc2[nH]ccc2c1)N1CCn2cc(CN3CCCC3)nc2C1`
*A* -78.2

*Q* Dear colleague, I am looking for the recorded cytotoxicity at 10 µM of the following molecule: `CN(C)C(=O)Cc1ccc(NC(=O)NC2CC2)cc1`
*A* 6.13

*Q* So what's the measured cytotoxicity at 10 µM for this one? `Cc1nccc(N[C@H]2CN(C(=O)CN3CCOCC3)C[C@@H]2C(C)C)n1`
*A* -7.92

* * *

Listing of entries alongside the reported cytotoxicity at 10 µM.
# measurement-protocol: Toxicity liver stage against HepG2, at 10uM
# Type: cell-based
# Design: test concentration 10 uM, cell line HepG2-A16-CD81EGFP
# settings: human, HepG2-A16-CD81EGFP cells; read-out: INHIBITION
Output spec: scalar in %, unitless text.

[
  {
    "compound": "COc1ccc(-c2ncccc2C(=O)N2C[C@@H]3CC[C@H]2C3)cn1",
    "quantity-name": "cytotoxicity at 10 µM",
    "observed-value": 6.42
  },
  {
    "compound": "COc1cc(N2C[C@H]3CCC[C@@H](CN4CCOCC4)[C@H]3C2)ncn1",
    "quantity-name": "cytotoxicity at 10 µM",
    "observed-value": -71.5
  },
  {
    "compound": "COc1ccc(C(C)NCc2nnc(C)s2)cc1F (stereo not drawn)",
    "quantity-name": "cytotoxicity at 10 µM",
    "observed-value": -19.8
  },
  {
    "compound": "CCc1ccc(C(COC)NC(=O)c2ccc(C(N)=O)cc2)o1 (stereo not drawn)",
    "quantity-name": "cytotoxicity at 10 µM",
    "observed-value": -2.65
  },
  {
    "compound": "CSc1ccccc1C(=O)N1C[C@@H](N(C)C)[C@H](c2ccc(C)cc2)C1",
    "quantity-name": "cytotoxicity at 10 µM",
    "observed-value": -7.02
  }
]

*Q* Any idea what cytotoxicity at 10 µM was measured for `NC(=O)Nc1cccc(CNC(=O)CCCc2ccccc2)c1` ?
*A* -10.1

*Q* For the compound shown here, `C=C(C)COc1cccc(CNCCc2nc(N)cc(O)n2)c1` , give the reported cytotoxicity at 10 µM.
*A* -47.1

*Q* # lookup: cytotoxicity at 10 µM of CC(NC1(CNS(C)(=O)=O)CCOCC1)c1ccccc1 (stereo not drawn)
*A* 6.72
